- protocol summary: Selectivity index, ratio of IC50 for CHO cells to IC50 for asexual erythrocyte stage of chloroquine-resistant Plasmodium falciparum Dd2 infected in human red blood cells
- Format: toxicity, cell-based
- condition label: Chinese hamster, read-out: Ratio IC50
property: selectivity ratio
Could you respond with only the numeric value?

Worked cases, selectivity ratio given:
>>> experimental_result("O=C(Nc1ccc(-c2nc3ccccc3[nH]2)cc1)c1cncc(C(F)(F)F)c1")
32
>>> experimental_result("O=C(Nc1ccc(-c2nc3ccccc3[nH]2)cc1)c1cc([N+](=O)[O-])cc([N+](=O)[O-])c1")
665
>>> experimental_result("O=C(Nc1ccc(-c2nc3ccccc3[nH]2)cc1)c1cc(Cl)nc(Cl)c1")
541

Continue with the next compound.
Supply measured selectivity ratio of O=C(Nc1ccc(-c2nc3ccccc3[nH]2)cc1)c1cncc(Br)c1 in your reply.
197

====

# key: entry, value: 1/IC50
- protocol summary: Inhibition of beta hematin formation after 5 to 6 hrs by NP40 detergent-based assay
Your answer should be a plain number; it is taken to be in µM⁻¹.

Worked cases, 1/IC50 given:
>>> experimental_result("O=C(Nc1ccc(-c2nc3ccccc3[nH]2)cc1)c1ccc[nH]1")
0.0215
>>> experimental_result("O=C(Nc1ccc(-c2nc3ccccc3[nH]2)cc1)c1cccc(Cl)c1")
0.0398

Supply measured 1/IC50 of O=C(Nc1ccc(-c2nc3ccccc3[nH]2)cc1)c1cccc(Br)c1 in your reply.
0.0408

Supply measured 1/IC50 of O=C(Nc1ccc(-c2nc3ccccc3[nH]2)cc1)c1cccc(C(F)(F)F)c1 in your reply.
0.0356

Supply measured 1/IC50 of O=C(Nc1ccc(-c2nc3ccccc3[nH]2)cc1)c1ccccc1[N+](=O)[O-] in your reply.
0.0346

Supply measured 1/IC50 of O=C(Nc1ccc(-c2nc3ccccc3[nH]2)cc1)c1ccccc1Cl in your reply.
0.0262

Supply measured 1/IC50 of O=C(Nc1ccc(-c2nc3ccccc3[nH]2)cc1)c1cncc(C(F)(F)F)c1 in your reply.
0.0602
